Provenance of the data: the supplement of paper PMC8612539

Provide the recorded minimum inhibitory concentration for the entries that follow.
- System: Histophilus somni
- protocolNotes: minimum inhibitory concentration (MIC)
- testConditions: isolate (source animal id): 186

Prompt line: Supply reported minimum inhibitory concentration belonging to this compound: "COc1cc(NS(=O)(=O)c2ccc(N)cc2)nc(OC)n1"
Response line: > 256 µg/mL

Prompt line: Using the record for "CN1C[C@@H]2C[C@H]1CN2c1cc2c(cc1F)c(=O)c(C(=O)O)cn2C1CC1" , state its measured minimum inhibitory concentration.
Response line: ≤ 0.12 µg/mL

Prompt line: Please indicate minimum inhibitory concentration recorded for "CS(=O)(=O)c1ccc([C@@H](O)[C@@H](CF)NC(=O)C(Cl)Cl)cc1"
Response line: ≤ 0.25 µg/mL

Prompt line: Look up and state reported minimum inhibitory concentration for "CN(C)[C@@H]1C(O)=C(C(N)=O)C(=O)[C@@]2(O)C(O)=C3C(=O)c4c(O)cccc4[C@@](C)(O)[C@H]3C[C@@H]12"
Response line: 4 µg/mL

Prompt line: Please give the documented minimum inhibitory concentration of "CC1(C)S[C@@H]2[C@H](NC(=O)[C@H](N)c3ccccc3)C(=O)N2[C@H]1C(=O)O"
Response line: ≤ 0.25 µg/mL

Prompt line: Assign minimum inhibitory concentration to the following record: "CC1(C)S[C@@H]2[C@H](NC(=O)Cc3ccccc3)C(=O)N2[C@H]1C(=O)O"
Response line: ≤ 0.12 µg/mL

Prompt line: Identify minimum inhibitory concentration associated with the compound "COc1cc(Cc2cnc(N)nc2N)cc(OC)c1OC.Cc1cc(NS(=O)(=O)c2ccc(N)cc2)no1"
Response line: ≤ 2 µg/mL
